Test system: A498 complex spheroid viability
assay-name: Anticancer human tumor A498 cell line growth inhibition;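 further: spheroids exposed to agents for seven days before readout; 100% = DMSO vehicle-treated spheroids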
assay-setup: second compound 10 µM; first compound 0.3 µM; hits give low values
measured-property: viability, T/C (%)

molecule	tgt	measured-property	display-unit	reported
NS(=O)(=O)OCC1CC(n2ccc3c(NC4CCc5ccccc54)ncnc32)CC1O (centres undefined) + NC1CC1c1ccc(-c2cccc(O)c2)cc1	A498 complex spheroid viability	viability, T/C	%	29.9
Nc1ccn(C2OC(CO)C(O)C2(F)F)c(=O)n1 (centres undefined) + NC1CC1c1ccc(-c2cccc(O)c2)cc1	A498 complex spheroid viability	viability, T/C	%	29.4
COc1cc(C2c3cc4c(cc3C(OC3OC5COC(C)OC5C(O)C3O)C3COC(=O)C23)OCO4)cc(OC)c1O (centres undefined) + NC1CC1c1ccc(-c2cccc(O)c2)cc1	A498 complex spheroid viability	viability, T/C	%	51.7
CCN(c1cc(-c2ccc(CN3CCOCC3)cc2)cc(C(=O)NCc2c(C)cc(C)[nH]c2=O)c1C)C1CCOCC1 + NC1CCC(NC2CC2c2ccccc2)CC1	A498 complex spheroid viability	viability, T/C	%	82.1
Nc1ncn(C2CC(O)C(CO)S2)c(=O)n1 (centres undefined) + NC1CCC(NC2CC2c2ccccc2)CC1	A498 complex spheroid viability	viability, T/C	%	14.3
O=C(C=Cc1cccc(S(=O)(=O)Nc2ccccc2)c1)NO + NC1CCC(NC2CC2c2ccccc2)CC1	A498 complex spheroid viability	viability, T/C	%	36
Nc1ccccc1NC(=O)c1ccc(CNC(=O)OCc2cccnc2)cc1 + NC1CCC(NC2CC2c2ccccc2)CC1	A498 complex spheroid viability	viability, T/C	%	47
Nc1ccccc1NC(=O)c1ccc(CNC(=O)OCc2cccnc2)cc1 + NC1CC1c1ccc(-c2cccc(O)c2)cc1	A498 complex spheroid viability	viability, T/C	%	48.1
CCN(c1cc(-c2ccc(CN3CCOCC3)cc2)cc(C(=O)NCc2c(C)cc(C)[nH]c2=O)c1C)C1CCOCC1 + NC1CC1c1ccc(-c2cccc(O)c2)cc1	A498 complex spheroid viability	viability, T/C	%	93.1
